Overview of reported growth across a group of compounds:
System: SF-539 CNS
Assay: NCI-60 one-dose screen, 48 h (100 = growth as untreated, 0 = no growth, -100 = all killed)
Settings: 10 µM unless noted
Compounds without any hit were thinned out: in the full panel of roughly 83,000, 20% have a hit.

[
  {
    "Entry Smiles": "c1nc(SC2=NCCN2)c2[nH]cnc2n1",
    "growth (%)": 24.3
  },
  {
    "Entry Smiles": "C[C@]12O[C@H]1[C@H](O)c1c(cc(O)c3c1C(=O)c1cccc(O)c1-3)C2=O",
    "growth (%)": 99.6
  },
  {
    "Entry Smiles": "C=C1C(=O)O[C@H]2[C@H]1CC/C(COC(=O)CCCC(=O)OC/C1=C/CC[C@@]3(C)O[C@H]3[C@H]3OC(=O)C(=C)[C@@H]3CC1)=C\\CC[C@@]1(C)O[C@@H]21",
    "growth (%)": 0.465
  },
  {
    "Entry Smiles": "O=C(Nc1ccc(-n2ccc3c(NC(=O)c4ccccc4)ncnc32)cc1)c1ccc(Cl)c(C(F)(F)F)c1",
    "growth (%)": 31.9
  }
]

---

Test system: NCI-H23 lung
Experiment: NCI-60 one-dose screen, 48 h
Conditions: 10 µM unless noted
Protocol: Growth inhibition of the NCI-H23 human Non-Small Cell Lung tumor cell line is measured as a screen for anti-cancer activity. Cells are grown in 96 well plates and exposed to the test compound for 48 hours. Compounds are tested at a single concentration, which is 10^-5 M for most compounds. The reported endpoint is percent growth (GI% or GIPRCNT), where numbers from 0 - 100% represent growth inhibition, and numbers from -100% - 0 represent cell death. […]
The panel holds about 83,000 compounds, 20% with a hit somewhere; the sample as a whole holds those more often. Active and inactive are the calls of the source. The calls were made as follows: active = growth percent below 10; inactive = the rest.
Outcomes: yes (1) = active, no (0) = inactive

[
  {
    "Compound": "CC1=C[S+](c2ccccc2)c2cccc3cc4ccccc4c1c23 (stereo not given)",
    "Category": "yes (1)"
  },
  {
    "Compound": "CCc1c(C)c2cc(-n3c(-c4ccc(OC)cc4)csc3=N)c(O)c(C)c2oc1=O",
    "Category": "no (0)"
  },
  {
    "Compound": "O=C(Nc1ccc(-n2cc(-c3ccncc3)c(-c3ccc(O)c(Cl)c3)n2)cc1)c1ccc(Cl)c(C(F)(F)F)c1",
    "Category": "no (0)"
  },
  {
    "Compound": "Oc1ccc(O)c(-[n+]2ccccc2)c1",
    "Category": "no (0)"
  },
  {
    "Compound": "COc1ccc(-c2nn(-c3cccc(Cl)c3)cc2-c2cc(-c3ccc(Br)cc3)[nH]c(=O)c2C#N)cc1",
    "Category": "no (0)"
  },
  {
    "Compound": "CC(C)CNCC(=O)Nc1ccc(Cc2ccc(NC(=O)CNCC(C)C)cc2)cc1",
    "Category": "no (0)"
  },
  {
    "Compound": "C[C@]12CC[C@@H]3c4ccc(O)c(N)c4CC[C@H]3[C@@H]1CC[C@@H]2O",
    "Category": "no (0)"
  },
  {
    "Compound": "CCN(CC)CCC(C(=O)O)(c1ccccc1)c1ccccc1",
    "Category": "no (0)"
  },
  {
    "Compound": "O=[N+]([O-])c1ccccc1NC1c2ccccc2Oc2ccccc21",
    "Category": "no (0)"
  },
  {
    "Compound": "O=c1[nH]ccc2nc(N3CCC(O)CC3)nc(Nc3cccc(C(F)(F)F)c3)c12",
    "Category": "no (0)"
  }
]
